- Test system: NCI-H460
- measurementProtocol: CTG cell proliferation experiment, NSCLC
- Assay type: cell-based
- measurementParameters: Homo sapiens; NCI-H460, STK11 and KRAS co-mutated; 72 hours
testReadout: IC50 (µM)
Write it as a number; the unit µM goes unstated.

Endpoint output: IC50 of CCN1[C@@H](C(=O)NC23CCC(C(=O)O)(CC2)CC3)[C@H](c2cccc(Cl)c2F)[C@]2(C(=O)Nc3cc(Cl)ccc32)C12CCCCC2 [Compound 2] . Value?
0.33
